target: Trypanothione reductase (Trypanosoma cruzi)
assaySummary: The second order rate constant of the TcTR (Trypanosoma cruzi trypanothione reductase) catalyzed […].
experimentalEndpoint: k cat/Km

Worked cases, k cat/Km given:
INSERT INTO results (chemicalsmiles, experimentalendpoint, recordedresult) VALUES
  ('CC1=C(CCC(=O)NCCCN2CCN(CCCNC(=O)CCC3=C(C)C(=O)c4ccccc4C3=O)CC2)C(=O)c2ccccc2C1=O', 'k cat/Km', '4.4 10e4 M-1 s-1'),
  ('CC1=C(CCCCCC(=O)NCCCN2CCN(CCCNC(=O)CCCCCC3=C(C)C(=O)c4cccc(O)c4C3=O)CC2)C(=O)c2c(O)cccc2C1=O', 'k cat/Km', '16.8 10e4 M-1 s-1'),
  ('CC1=C(CCCC(=O)NCCCNCCCNC(=O)CCCC2=C(C)C(=O)c3ccccc3C2=O)C(=O)c2ccccc2C1=O', 'k cat/Km', '1.6 10e4 M-1 s-1');

The measured k cat/Km associated with CC1=C(CCCC(=O)NCCCN2CCN(CCCNC(=O)CCCC3=C(C)C(=O)c4cccc(O)c4C3=O)CC2)C(=O)c2c(O)cccc2C1=O reads 3.5 10e4 M-1 s-1

The measured k cat/Km associated with CC1=C(CCCC(=O)NCCCN2CCN(CCCNC(=O)CCCC3=C(C)C(=O)c4ccccc4C3=O)CC2)C(=O)c2ccccc2C1=O reads 4.2 10e4 M-1 s-1

The measured k cat/Km associated with CC1=C(CCCCC(=O)NCCCNCCCNC(=O)CCCCC2=C(C)C(=O)c3cccc(O)c3C2=O)C(=O)c2c(O)cccc2C1=O reads 11.4 10e4 M-1 s-1

The measured k cat/Km associated with CC1=C(CCC(=O)NCCCNCCCNC(=O)CCC2=C(C)C(=O)c3cccc(O)c3C2=O)C(=O)c2c(O)cccc2C1=O reads 4.5 10e4 M-1 s-1

----------
target: Trypanothione reductase (Trypanosoma cruzi)
assaySummary: The second order rate constant of the TcTR (Trypanosoma cruzi trypanothione reductase) catalyzed […].
Measured k cat/Km accompanies every entry in the list below.

The measured k cat/Km associated with CC1=C(CCCCCC(=O)NCCCCNCCCNC(=O)CCCCCC2=C(C)C(=O)c3cccc(O)c3C2=O)C(=O)c2c(O)cccc2C1=O reads 13.3 10e4 M-1 s-1

The measured k cat/Km associated with CC1=C(CCCC(=O)NCCCCNCCCNC(=O)CCCC2=C(C)C(=O)c3ccccc3C2=O)C(=O)c2ccccc2C1=O reads 2.3 10e4 M-1 s-1

The measured k cat/Km associated with CC1=C(CCCC(=O)NCCCNCCCNC(=O)CCCC2=C(C)C(=O)c3cccc(O)c3C2=O)C(=O)c2c(O)cccc2C1=O reads 6.5 10e4 M-1 s-1

The measured k cat/Km associated with CC1=C(CCCCCC(=O)NCCCNCCCNC(=O)CCCCCC2=C(C)C(=O)c3ccccc3C2=O)C(=O)c2ccccc2C1=O reads 2.3 10e4 M-1 s-1

The measured k cat/Km associated with CC1=C(CCC(=O)NCCCCNCCCNC(=O)CCC2=C(C)C(=O)c3ccccc3C2=O)C(=O)c2ccccc2C1=O reads 5.1 10e4 M-1 s-1

The measured k cat/Km associated with CC1=C(CCCCC(=O)NCCCCNCCCNC(=O)CCCCC2=C(C)C(=O)c3ccccc3C2=O)C(=O)c2ccccc2C1=O reads 5.8 10e4 M-1 s-1

The measured k cat/Km associated with CC1=C(CCC(=O)NCCCNCCCNC(=O)CCC2=C(C)C(=O)c3ccccc3C2=O)C(=O)c2ccccc2C1=O reads 2.3 10e4 M-1 s-1

The measured k cat/Km associated with CC1=CC(=O)c2ccccc2C1=O reads 1 10e4 M-1 s-1
